Test system: Escherichia coli TOP10
assayText: shrunken log2 fold change of peptide-encoding DNA abundance (4.5 h post-induction vs induction); higher = less antimicrobial activity (less host growth inhibition)
conditions: time post-induction: 4.5 h; library: site-saturation at positions 5, 18, 19, 20
outcomeMeasure: shrunken log2 fold change

- seqText: "RRIRNRPPRLPRPRPRPEFKPRP"
  experimentalSystem: "Escherichia coli TOP10"
  numericReadout: -0.0932
- seqText: "RRIRSRPPRLPRPRPRPSWDPRP"
  experimentalSystem: "Escherichia coli TOP10"
  numericReadout: 0.364
- seqText: "RRIRIRPPRLPRPRPRPHNEPRP"
  experimentalSystem: "Escherichia coli TOP10"
  numericReadout: -1.35
- seqText: "RRIRFRPPRLPRPRPRPENMPRP"
  experimentalSystem: "Escherichia coli TOP10"
  numericReadout: -0.158
- seqText: "RRIRWRPPRLPRPRPRPVPLPRP"
  experimentalSystem: "Escherichia coli TOP10"
  numericReadout: 0.00691
- seqText: "RRIRMRPPRLPRPRPRPWDSPRP"
  experimentalSystem: "Escherichia coli TOP10"
  numericReadout: -0.152
- seqText: "RRIRGRPPRLPRPRPRPPFSPRP"
  experimentalSystem: "Escherichia coli TOP10"
  numericReadout: 0.444
- seqText: "RRIRLRPPRLPRPRPRPRLCPRP"
  experimentalSystem: "Escherichia coli TOP10"
  numericReadout: 0.35
- seqText: "RRIRYRPPRLPRPRPRPNLWPRP"
  experimentalSystem: "Escherichia coli TOP10"
  numericReadout: 0.00221
- seqText: "RRIRDRPPRLPRPRPRPHGYPRP"
  experimentalSystem: "Escherichia coli TOP10"
  numericReadout: 0.0237
- seqText: "RRIRERPPRLPRPRPRPWYWPRP"
  experimentalSystem: "Escherichia coli TOP10"
  numericReadout: 0.0516
- seqText: "RRIRGRPPRLPRPRPRPTIQPRP"
  experimentalSystem: "Escherichia coli TOP10"
  numericReadout: 0.54
- seqText: "RRIRHRPPRLPRPRPRPWRDPRP"
  experimentalSystem: "Escherichia coli TOP10"
  numericReadout: -0.154
- seqText: "RRIRYRPPRLPRPRPRPRTLPRP"
  experimentalSystem: "Escherichia coli TOP10"
  numericReadout: -0.537
- seqText: "RRIRSRPPRLPRPRPRPTKGPRP"
  experimentalSystem: "Escherichia coli TOP10"
  numericReadout: -0.0226

###

System: Escherichia coli TOP10;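 also: peptides expressed intracellularly from a pBAD plasmid library in pooled LB shake-flask culture, induced with 0.3% L-arabinose, DNA abundance read by NGS, three biological replicates, DESeq2 with apeglm shrinkage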
assayText: shrunken log2 fold change of peptide-encoding DNA abundance (4.5 h post-induction vs induction); higher = less antimicrobial activity (less host growth inhibition)
conditions: time post-induction: 4.5 h; library: site-saturation at positions 5, 18, 19, 20

- seqText: "RRIRNRPPRLPRPRPRPKHKPRP"
  shrunken log2 fold change: -0.0428
- seqText: "RRIRKRPPRLPRPRPRPWEKPRP"
  shrunken log2 fold change: -0.00969
- seqText: "RRIRLRPPRLPRPRPRPKCHPRP"
  shrunken log2 fold change: -0.387
- seqText: "RRIRARPPRLPRPRPRPSLQPRP"
  shrunken log2 fold change: 0.193
- seqText: "RRIRYRPPRLPRPRPRPQTGPRP"
  shrunken log2 fold change: -0.288
- seqText: "RRIRFRPPRLPRPRPRPGFRPRP"
  shrunken log2 fold change: 0.0855
- seqText: "RRIRCRPPRLPRPRPRPDRLPRP"
  shrunken log2 fold change: -0.335
- seqText: "RRIRFRPPRLPRPRPRPEKWPRP"
  shrunken log2 fold change: 0.109
